Here the recorded growth inhibition is given for each entry.
- test-method-notes: OD615 S. cerevisiae growth inhibition, permissive medium, pilot counter-assay, permissive growth control for S. cerevisiae lifespan shortening project (AID 705)
- settings: OD615, 24 h, at 10 µM, hits give high values
readout-label: growth inhibition (%)

INSERT INTO assay_data (compound, measured_result) VALUES
  ('CC1(C)Cc2c(sc3c2c(=N)n(Cc2ccco2)c(=O)n3CC(=O)Nc2cccc(Cl)c2)CO1', -9.23),
  ('COc1ccc(NC(=O)C(c2ccc(OC)cc2)N(C)C(=O)c2cnccn2)cc1 (stereo unspecified)', 9.44),
  ('O=C(c1ccccc1Cl)N1CCC(c2nc3c(nnn3Cc3ccco3)c(=O)[nH]2)CC1', -6.62),
  ('O=C(O)CCC(=O)N1CCc2cc(S(=O)(=O)N3CCC(Cc4ccccc4)CC3)ccc21', -6.24),
  ('CCSc1nnc(NC(=O)C2CC=CCC2C(=O)O)s1 (stereo unspecified)', -17.7),
  ('O=C(NCc1ccccn1)c1nnc(Cc2ccc(Cl)cc2)o1', -1.48),
  ('CCOc1cccc2c1OC1(C)CC2NC(=O)N1c1cccc(Cl)c1 (stereo unspecified)', -12),
  ('O=C(CN1CCN(c2ccccn2)CC1)N(c1ccccc1)c1ccc2ccccc2c1', -6.17),
  ('CCCNC(=O)c1noc2c1CCc1ccccc1-2', -1.21),
  ('CN(C)C(=O)CSc1nnc(-c2cccnc2)n1-c1ccccc1', -5.85),
  ('CCN1C(=O)CS/C1=N\c1nccs1', 1.12),
  ('Cc1cc(F)ccc1S(=O)(=O)Nc1c(C)n(C)n(-c2ccccc2)c1=O', 1.71),
  ('O=C(CSc1nccn1-c1cccc(Cl)c1)Nc1ccc2c(c1)OCCO2', -11.7),
  ('CN(C)/C=N/c1c(C#N)cnn1-c1nc2ccccc2s1', -9.66),
  ('COc1ccc(NC2=NCC(=O)N2c2ccccc2)c(OC)c1', -19.2),
  ('Cc1cccn2cc(CCNC(=O)c3ccc(Br)o3)nc12', -8.18),
  ('C=CCn1c(CCCNC(=O)CCC)nc2ccccc21', 2),
  ('CCS(=O)(=O)C(=C(Nc1ccc(OC)cc1)Nc1ccc(OC)cc1)S(=O)(=O)CC', -3.28),
  ('COC(=O)c1ccc(NC(=O)c2cnc3scc(C)n3c2=O)cc1', -9.29),
  ('Cc1ccc(CC2C(=O)N(c3ncccn3)C(=O)C2C)cc1 (stereo unspecified)', -5.95),
  ('CCCC(C)NC(=O)c1ccc(F)cc1 (stereo unspecified)', -11.8),
  ('c1ccc(N2CCN(C3CCSC3)CC2)cc1 (stereo unspecified)', -20.2),
  ('NS(=O)(=O)c1ccc(CCNC(=O)NC2(C(F)(F)F)Oc3ccccc3O2)cc1', -2.1),
  ('Cc1c(C(=O)NCc2ccccc2)oc2ccc(S(=O)(=O)N3CCC4(CC3)OCCO4)cc12', 5.31),
  ('COc1ccc(CNc2oc(C)nc2C#N)cc1', -0.095),
  ('O=C(c1ccc(CN2CCOCC2)cc1)N1CCC(Cc2ccccc2)CC1', -5.94),
  ('COc1ccc(C2OC(=O)CC2C(=O)N2CCN(c3cc(Cl)ccc3C)CC2)cc1OC (stereo unspecified)', -0.42),
  ('CC1=CC(C)(C)Nc2ccc(OC(=O)c3ccco3)cc21', 1.4),
  ('Cn1nnnc1SCC(=O)c1cccs1', -23.8),
  ('Cc1ccccc1NC(=O)c1cnn(-c2ccccc2)c1NC(=O)c1ccco1', -12.6),
  ('CCCCn1c(C(C)NC(=O)COC)nc2ccccc21 (stereo unspecified)', -3.38),
  ('Cn1c(=O)oc2cc(S(=O)(=O)N3CCCC(C(=O)N4CC=C(c5ccccc5)CC4)C3)ccc21 (stereo unspecified)', -10.7),
  ('COc1ccc(OC)c(NC(=O)NC2(C(F)(F)F)Oc3ccccc3O2)c1', -4.07),
  ('COc1ccc(-c2c(C)oc3c(CN4CCN(C)CC4)c(O)ccc3c2=O)cc1', -13.2),
  ('O=C(NCc1nc2ccccc2[nH]1)c1cccs1', -13.9),
  ('COCCN(C(=O)Nc1ccccc1)C(C)c1cccnc1 (stereo unspecified)', 9.6),
  ('COc1ccc(S(=O)(=O)Cc2ccc(C(=O)N3CCN(C4CCCCC4)CC3)o2)cc1', 8.67),
  ('COCc1cc(=O)n2c(-c3ccccc3OC)n[nH]c2n1', -14),
  ('Nc1nc2n(n1)C(c1ccccc1Cl)CC(c1ccc(F)cc1)N2 (stereo unspecified)', 0.695),
  ('COc1c2c(nc3ccccc13)OC(C(C)(O)COC(C)=O)C2 (stereo unspecified)', -2.59),
  ('Cc1noc(/C=C/N(C)C)c1S(=O)(=O)N1CCCC(C(=O)NC2CCCCC2C)C1 (stereo unspecified)', -2.76),
  ('O=C1C(Cl)=C(Nc2ccccc2O)C(=O)N1c1ccccc1', -42),
  ('Cn1c(Cn2c(=O)sc3ccccc32)nnc1SCC(=O)Nc1ccccc1F', -5.34),
  ('CCn1cc(C(=O)NCc2cccnc2)c2cc(OC)c(OC)cc2c1=O', -18.3),
  ('O=C(NCc1cccnc1)NC1(C(F)(F)F)Oc2ccccc2O1', 4.4),
  ('O=C(Nc1ccc(F)cc1F)N1CCN(c2ncccn2)CC1', -14.8);
